Molecular target: GST-Rok-C97-191 (Bacillus subtilis subsp. subtilis str. …, UniProt O34857 97-191)
Sequence: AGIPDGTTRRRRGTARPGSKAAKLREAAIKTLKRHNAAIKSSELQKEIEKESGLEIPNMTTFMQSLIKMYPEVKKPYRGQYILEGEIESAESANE
Experiment: protein binding microarray; Rok is a gene silencer of Bacillus subtilis; high values mean tight binding
Conditions: protein: recombinant; tags: GST (pTH5325, pDEST15-Magic modified); dsDNA, one strand shown
Over roughly 33,000 sequences, “e-score” has its median near -0.038; the highest 2% begin near 0.33. The full list was thinned out, with the highest values kept by preference.
Assign class by binding signal: not lower than 0.2 E-score means 1.0; lower than 0.2 E-score means 0.0.

Can CTAGTTAA be said to have binding signal at or above 0.2 E-score?
1.0

Can ATAGTTTA be said to have binding signal at or above 0.2 E-score?
1.0

Can CTAGTTTC be said to have binding signal at or above 0.2 E-score?
1.0

Can ATAGTTGG be said to have binding signal at or above 0.2 E-score?
0.0

Can AAGTAGAC be said to have binding signal at or above 0.2 E-score?
0.0

Can ATAGTTTG be said to have binding signal at or above 0.2 E-score?
1.0

Can ATAGTTAA be said to have binding signal at or above 0.2 E-score?
1.0

Can CAGGTAGA be said to have binding signal at or above 0.2 E-score?
1.0

Can AAGTAGGA be said to have binding signal at or above 0.2 E-score?
0.0

Can ATCGTTTG be said to have binding signal at or above 0.2 E-score?
0.0

Can GTAGTTAA be said to have binding signal at or above 0.2 E-score?
1.0

Can AAGTAGAA be said to have binding signal at or above 0.2 E-score?
1.0

Can CAGTAGAA be said to have binding signal at or above 0.2 E-score?
1.0

Can CCAGTTTC be said to have binding signal at or above 0.2 E-score?
0.0

Can TAGTAGGA be said to have binding signal at or above 0.2 E-score?
1.0

Can AAGTAGAT be said to have binding signal at or above 0.2 E-score?
1.0

Can AAGTAGAG be said to have binding signal at or above 0.2 E-score?
0.0

Can CGAGTTTC be said to have binding signal at or above 0.2 E-score?
0.0

Can TAGGTAGA be said to have binding signal at or above 0.2 E-score?
1.0

Can GAGGTATA be said to have binding signal at or above 0.2 E-score?
1.0

Can GAGTAGAA be said to have binding signal at or above 0.2 E-score?
1.0

Can TAGTAGAA be said to have binding signal at or above 0.2 E-score?
1.0

Source of measurements: paper PMC6212790
